# tested target: EGFR (Homo sapiens)
# Construct: EGFR cytoplasmic domain (EGFR-CD, amino acids 645–1186); His6 (N); made in house; host or cells: Sf-9 insect cells (baculovirus)
# Sequence (P00533 669-1210): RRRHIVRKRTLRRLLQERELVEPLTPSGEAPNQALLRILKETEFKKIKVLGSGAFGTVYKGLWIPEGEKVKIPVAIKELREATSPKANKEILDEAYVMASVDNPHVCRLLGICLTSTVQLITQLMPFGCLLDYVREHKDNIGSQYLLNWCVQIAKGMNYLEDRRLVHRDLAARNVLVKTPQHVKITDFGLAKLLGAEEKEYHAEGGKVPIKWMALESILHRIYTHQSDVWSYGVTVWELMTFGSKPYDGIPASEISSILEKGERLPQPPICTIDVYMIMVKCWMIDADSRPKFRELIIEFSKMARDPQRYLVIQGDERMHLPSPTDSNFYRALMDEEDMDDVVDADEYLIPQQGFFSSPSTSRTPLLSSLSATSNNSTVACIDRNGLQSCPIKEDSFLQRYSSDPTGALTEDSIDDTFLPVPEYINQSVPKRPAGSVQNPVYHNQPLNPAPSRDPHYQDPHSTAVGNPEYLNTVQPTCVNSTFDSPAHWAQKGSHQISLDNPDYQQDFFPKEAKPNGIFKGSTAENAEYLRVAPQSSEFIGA
# procedure text: EGFR inhibitory assay
# Assay type: biochemical
# measurement context: EGFR, conc 0.01 (log -2), unit not given

>  <smiles input>
C/C(=N\Nc1ccc(S(N)(=O)=O)cc1)c1cnn(-c2cc(=O)[nH]c3ccc(Br)cc23)c1C

>  <%inh, %>
37

$$$$
>  <smiles input>
C/C(=N\Nc1ccc(C(=O)O)cc1)c1cnn(-c2cc(=O)[nH]c3ccc(C)cc23)c1C

>  <%inh, %>
21

$$$$
>  <smiles input>
C/C(=N\Nc1ccc(C(=O)O)cc1)c1cnn(-c2cc(=O)[nH]c3ccccc23)c1C

>  <%inh, %>
10.6

$$$$
>  <smiles input>
C/C(=N\Nc1ccc(S(N)(=O)=O)cc1)c1cnn(-c2cc(=O)[nH]c3ccc(Cl)cc23)c1C

>  <%inh, %>
27.8

$$$$

----------
Reported inhibition at 10 µM is given for each of the following compounds.
# System: NCI 60 cancer cell lines
# procedure text: NCI anticancer screening over a panel of 60 cancer cells, single concentration 10 µM
# Type: cell-based, human
# measurement context: Homo sapiens, RXF 393, Renal cancer RXF 393, 10 μM; read-out: % Growth Inhibition (GI %)
metric: inhibition at 10 µM

>  <smiles input>
C/C(=N\Nc1ccc(S(N)(=O)=O)cc1)c1cnn(-c2cc(=O)[nH]c3ccc(Cl)cc23)c1C

>  <tested target>
NCI 60 cancer cell lines

>  <value>
< 5%

$$$$
>  <smiles input>
C/C(=N\Nc1ccc(S(N)(=O)=O)cc1)c1cnn(-c2cc(=O)[nH]c3ccc(Br)cc23)c1C

>  <tested target>
NCI 60 cancer cell lines

>  <value>
31.4%

$$$$
>  <smiles input>
C/C(=N\Nc1ccc(C(=O)O)cc1)c1cnn(-c2cc(=O)[nH]c3ccc(Cl)cc23)c1C

>  <tested target>
NCI 60 cancer cell lines

>  <value>
< 5%

$$$$

----------
# procedure text: in vitro
# measurement context: human, % viability, WI38, 100uM (log conc. 2)
metric: viability at 100 µM (%)

>  <compound>
CN[C@@H]1C[C@H]2O[C@@](C)([C@@H]1OC)n1c3ccccc3c3c4c(c5c6ccccc6n2c5c31)C(=O)NC4 [Staurosporine, reference compound]

>  <value>
37.4

$$$$

----------
# System: NCI 60 cancer cell lines
# procedure text: NCI anticancer screening over a panel of 60 cancer cells, single concentration 10 µM
# Format: cell-based, human
# measurement context: Homo sapiens, BT-549, Breast cancer BT-549, 10 μM; read-out: Growth inhibition (GI %)

>  <compound>
CC(=O)c1cnn(-c2cc(=O)[nH]c3ccc(Br)cc23)c1C [Compound 2e]

>  <inhibition at 10 µM>
< 5%

$$$$
>  <compound>
CC(=O)c1cnn(-c2cc(=O)[nH]c3ccc(C)cc23)c1C [Compound 2b]

>  <inhibition at 10 µM>
< 5%

$$$$
>  <compound>
CC(=O)c1cnn(-c2cc(=O)[nH]c3ccc(Cl)cc23)c1C [Compound 2d]

>  <inhibition at 10 µM>
< 5%

$$$$
>  <compound>
COc1ccc2[nH]c(=O)cc(-n3ncc(C(C)=O)c3C)c2c1 [Compound 2c]

>  <inhibition at 10 µM>
< 5%

$$$$
>  <compound>
CC(=O)c1cnn(-c2cc(=O)[nH]c3ccccc23)c1C [Compound 2a]

>  <inhibition at 10 µM>
6.06%

$$$$
